target.or.test.system: T1, recombinant human IP-10 (human, UniProt P02778 22-98)
T1 construct: Bought from R&D Systems; also called CXCL10; rhIP-10
T1 sequence: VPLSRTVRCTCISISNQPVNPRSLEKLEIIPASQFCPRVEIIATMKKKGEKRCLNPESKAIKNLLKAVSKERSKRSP
experiment.notes: competition ELISA on human IP-10, competitor: AIP13
The reader will find reported IC50 values listed item by item below.

{"binder": "12H+13L antibody (antibody, V domains shown, HuAIP12 heavy chain with HuAIP13 light chain; human gamma-1/kappa) VH: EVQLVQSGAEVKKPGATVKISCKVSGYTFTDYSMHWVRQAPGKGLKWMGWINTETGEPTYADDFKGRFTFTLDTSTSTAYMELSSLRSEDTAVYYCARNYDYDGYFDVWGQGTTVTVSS VL: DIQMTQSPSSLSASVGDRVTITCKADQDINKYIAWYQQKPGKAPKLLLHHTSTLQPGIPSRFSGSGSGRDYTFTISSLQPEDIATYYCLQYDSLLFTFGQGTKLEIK", "IC50, µg/mL": 3}
{"binder": "13H+12L antibody (antibody, V domains shown, HuAIP13 heavy chain with HuAIP12 light chain; human gamma-1/kappa) VH: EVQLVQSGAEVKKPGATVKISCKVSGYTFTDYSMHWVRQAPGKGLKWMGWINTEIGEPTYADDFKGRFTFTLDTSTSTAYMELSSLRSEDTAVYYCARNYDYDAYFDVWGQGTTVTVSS VL: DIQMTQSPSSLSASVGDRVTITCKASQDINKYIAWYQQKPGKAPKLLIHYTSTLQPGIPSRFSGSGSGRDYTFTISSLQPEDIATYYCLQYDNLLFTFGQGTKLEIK", "IC50, µg/mL": 13.6}
